target: Dipeptidyl amino peptidase type IV (DPP IV); assay: cell-based or functional assay
Where no end group is shown, it is not given here. [ ]: non-standard residue; d: D form. The star is where a group is joined. NMeF = CN[C@@H](Cc1ccccc1)C(=O)O; boroPro = OB(O)[C@@H]1CCCN1*
endpoint: IC50 at ten minutes, pH 2 (µM)

Ask: Find the measured IC50 at ten minutes, pH 2 of PPP[boroPro] [ProProProboroPro] and report it.
Reply: 10

Ask: Tell me its IC50 at ten minutes, pH 2 given GPP[boroPro] [GlyProProboroPro] as the entry.
Reply: 8.6

Ask: Return the recorded IC50 at ten minutes, pH 2 value; entry: [NMeF]PA[boroPro] [N-Me-Phe-PRO-ALA-PRO boronic acid]
Reply: 2

[1] AAV[boroPro] [AlaAlaValboroPro]
[2] APP[boroPro] [AlaProProboroPro]
Ask: API: POST /compare with 1 and 2 ; response names the item with higher IC50 at ten minutes, pH 2. Output the label that corresponds to your choice.
Reply: 2
(2: 8.3 µM, 1: 2 µM)
